Tested on: S. aureus MW2 ΔXV
Experiment: Antimicrobial susceptibility test (VITEK 2 system); further: key: R: resistant; S: susceptible
Format: cell-based, Staphylococcus aureus
Settings: strain MW2 ΔXV
property measured: Antimicrobial susceptibility (R/S)

chemical structure: CO/N=C(\C(=O)N[C@@H]1C(=O)N2C(C(=O)O)=C(COC(N)=O)CS[C@H]12)c1ccco1
result: R
//
chemical structure: CC[C@H]1OC(=O)[C@H](C)[C@@H](O[C@H]2C[C@@](C)(OC)[C@@H](O)[C@H](C)O2)[C@H](C)[C@@H](O[C@@H]2O[C@H](C)C[C@H](N(C)C)[C@H]2O)[C@](C)(O)C[C@@H](C)C(=O)[C@H](C)[C@@H](O)[C@]1(C)O
result: S
//
chemical structure: O=C(N[C@H](CO)[C@H](O)c1ccc([N+](=O)[O-])cc1)C(Cl)Cl
result: S
//
chemical structure: CC[C@H]1OC(=O)[C@H](C)[C@@H](O[C@H]2C[C@@](C)(OC)[C@@H](O)[C@H](C)O2)[C@H](C)[C@@H](O[C@@H]2O[C@H](C)C[C@H](N(C)C)[C@H]2O)[C@](C)(O)C[C@@H](C)CN(C)[C@H](C)[C@@H](O)[C@]1(C)O
result: S
//
chemical structure: C/C(=C\C(=O)OCCCCCCCCC(=O)O)C[C@@H]1OC[C@H](C[C@@H]2O[C@H]2[C@@H](C)[C@H](C)O)[C@@H](O)[C@H]1O
result: S
//
chemical structure: CN[C@H](CC(C)C)C(=O)N[C@H]1C(=O)N[C@@H](CC(N)=O)C(=O)N[C@H]2C(=O)N[C@H]3C(=O)N[C@H](C(=O)N[C@H](C(=O)O)c4cc(O)cc(O)c4-c4cc3ccc4O)[C@H](O)c3ccc(c(Cl)c3)Oc3cc2cc(c3O[C@@H]2O[C@H](CO)[C@@H](O)[C@H](O)[C@H]2O[C@H]2C[C@](C)(N)[C@H](O)[C@H](C)O2)Oc2ccc(cc2Cl)[C@H]1O
result: S

--- query ---
input: Specify Antimicrobial susceptibility (R/S) for Cc1onc(-c2ccccc2)c1C(=O)N[C@@H]1C(=O)N2[C@@H]1SC(C)(C)[C@@H]2C(=O)O and stop.
output: R

* * *

Test system: S. aureus MW2
Format: cell-based, Staphylococcus aureus
Conditions: strain MW2
Method: Antibiotic sensitivity tests were performed at the University Clinic of Navarra. Antibiotics routinely used in clinic for treatment of S. aureus infections were tested by VITEK 2 system. • Growth Kinetics Analysis
property measured: Antimicrobial susceptibility (R/S)

chemical structure: CO[C@H]1/C=C/O[C@@]2(C)Oc3c(C)c(O)c4c(O)c(c(/C=N/N5CCN(C)CC5)c(O)c4c3C2=O)NC(=O)/C(C)=C\C=C\[C@H](C)[C@H](O)[C@@H](C)[C@@H](O)[C@@H](C)[C@H](OC(C)=O)[C@@H]1C
Antimicrobial susceptibility (R/S): S
//
chemical structure: O=C1CN(/N=C/c2ccc([N+](=O)[O-])o2)C(=O)N1
Antimicrobial susceptibility (R/S): S
//
chemical structure: CC(=O)OCC1=C(C(=O)O)N2C(=O)[C@@H](NC(=O)Cc3cccs3)[C@H]2SC1
Antimicrobial susceptibility (R/S): R
//
chemical structure: NC[C@H]1O[C@H](O[C@H]2[C@H](O)[C@@H](O[C@H]3O[C@H](CO)[C@@H](O)[C@H](N)[C@H]3O)[C@H](N)C[C@@H]2N)[C@H](N)C[C@@H]1O
Antimicrobial susceptibility (R/S): S

input: Consider the compound CC(=O)NC[C@H]1CN(c2ccc(N3CCOCC3)c(F)c2)C(=O)O1 and give its recorded Antimicrobial susceptibility (R/S).
output: S

input: Please report Antimicrobial susceptibility (R/S) for the following compound: CCC[C@@H]1C[C@@H](C(=O)N[C@@H]([C@H]2O[C@H](SC)[C@H](O)[C@@H](O)[C@H]2O)[C@H](C)Cl)N(C)C1
output: S

input: Please look at this compound and report its Antimicrobial susceptibility (R/S): CC[C@H]1OC(=O)[C@H](C)[C@@H](O[C@H]2C[C@@](C)(OC)[C@@H](O)[C@H](C)O2)[C@H](C)[C@@H](O[C@@H]2O[C@H](C)C[C@H](N(C)C)[C@H]2O)[C@](C)(O)C[C@@H](C)CN(C)[C@H](C)[C@@H](O)[C@]1(C)O
output: S

Hey, just so you know, these numbers are from patent US20190233906A1.
